Entry source: the RNAGym collection of RNA variant scans (doi:10.7554/elife.90254)

B1: LINE1-full (parent)
chain: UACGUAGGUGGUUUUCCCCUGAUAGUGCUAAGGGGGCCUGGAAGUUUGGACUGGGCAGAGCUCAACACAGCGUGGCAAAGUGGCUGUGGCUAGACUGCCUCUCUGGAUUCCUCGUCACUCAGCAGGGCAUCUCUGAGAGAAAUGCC

variants of: B1; assay: self-cleavage, relative activity (ratio to wild type); higher = more cleavage; in vitro, sequencing; the parent is a self-cleaving ribozyme
Note to self: values exactly at 1 are 1. So self-cleavage at or above 1 is 1, below is -1.

Request: Reported self-cleavage at or above 1? G72A U102A
Response: 1
